# growth per record follows
- System: RPMI-8226 leukemia
- EXPERIMENTAL_DETAILS: NCI-60 one-dose screen, 48 h (100 = growth as untreated, 0 = no growth, -100 = all killed)
- SETUP_CONDITIONS: 10 µM unless noted
Compounds without any hit were thinned out: in the full panel of roughly 83,000, 20% have a hit.
Field format: number, assumed %, no unit text.

Look over these answered cases.
Look up and state reported growth for "COC(=O)[C@]12CCC(C)(C)C[C@H]1[C@H]1C(=O)C[C@@H]3[C@@]4(C)c5c([nH]c6ccccc6c5=O)C(C)(C)[C@@H]4CC[C@@]3(C)[C@]1(C)CC2"
34.9

Look up and state reported growth for "COc1nc2c(c(=O)n1C)CN(Cc1ccccc1)C=N2"
86.6

Look up and state reported growth for "CCCn1c(=O)[nH]c(N)c([C@H]2c3ccccc3Oc3[nH]c(=O)n(CCC)c(=O)c32)c1=O"
81.7

Now consider a different molecule.
Look up and state reported growth for "O=C(Cc1ccc(/C=C/C(=O)c2ncc[nH]2)cc1)Nc1ccc(F)cc1"
-17.9

* * *

- Tested on: MALME-3M melanoma
- EXPERIMENTAL_DETAILS: NCI-60 one-dose screen, 48 h (100 = growth as untreated, 0 = no growth, -100 = all killed)
- SETUP_CONDITIONS: 10 µM unless noted
Compounds without any hit were thinned out: in the full panel of roughly 83,000, 20% have a hit.
# growth per record follows
Field format: number, assumed %, no unit text.

Look over these answered cases.
Look up and state reported growth for "O=CNc1ccc2c(c1)Cc1cccc(NC=O)c1-2"
106

Look up and state reported growth for "COc1cccc(-c2nc3sccn3c2-c2ccnc(NCCCNS(=O)(=O)c3cccc(F)c3)c2)c1"
28.1

Look up and state reported growth for "O=C1NC(=S)N[C@H]1CC(=O)n1cnc2ccccc21"
98.2

Others:
Look up and state reported growth for "Cn1c(O)c(N=NC(=O)c2cc(-c3ccccc3)on2)c2ccccc21"
88.7

Look up and state reported growth for "COc1cc(-c2nc3ccccc3[nH]2)ccc1OCC(=O)N=Nc1c(O)[nH]c2ccc(Cl)cc12"
-66.9

* * *

- Tested on: BT-549 breast
- EXPERIMENTAL_DETAILS: NCI-60 one-dose screen, 48 h (100 = growth as untreated, 0 = no growth, -100 = all killed)
- SETUP_CONDITIONS: 10 µM unless noted
The panel holds about 83,000 compounds, 20% with a hit somewhere; the sample as a whole holds those more often.
growth vs 70%: less than gives satisfied; not less than gives not satisfied.

As a guide, the following entries are already answered.
Is the reported growth for "N#Cc1c(-c2ccc(Cl)cc2)nc(N=Nc2c(O)[nH]c3ccc(Cl)cc23)nc1N1CCOCC1" strictly below 70%?
not satisfied

Is the reported growth for "CC(=O)c1cc2c(N)c(C(=O)Nc3cccc(F)c3C)sc2nc1C" strictly below 70%?
not satisfied

Is the reported growth for "CCOC(=O)c1c(CN2CCN(C)CC2)nc2ccc(Cl)cc2c1-c1ccccc1" strictly below 70%?
satisfied

Is the reported growth for "NC(=NCCCOc1ccc(Cl)cc1)Nc1ccc(Cl)cc1" strictly below 70%?
satisfied

Others:
Is the reported growth for "O=C1c2ccccc2C(=O)c2c(N=Nc3[nH]c(=S)[nH]c3O)cccc21" strictly below 70%?
satisfied

Is the reported growth for "O=C(C(=O)c1ccc2c(c1)OCO2)c1ccc2c(c1)OCO2" strictly below 70%?
not satisfied

Is the reported growth for "C=C(C)[C@@H]1CC[C@]2(C(N)=O)CC[C@]3(C)[C@H](CC[C@@H]4[C@@]5(C)C/C(=C/c6ccco6)C(=O)C(C)(C)[C@@H]5CC[C@]43C)[C@@H]12" strictly below 70%?
not satisfied

Is the reported growth for "NC(N)=N/N=C(/c1ccccc1)c1ccc(F)cc1" strictly below 70%?
satisfied
